meta.source: patent US20250002455A1

# maps each entry to its MIC
# Tested on: S. aureus ATCC 29213
# procedureSummary: Microbroth dilution MIC (CLSI)
# Assay type: cell-based
# setupConditions: Staphylococcus aureus, ATCC29213; S. aureus ATCC 29213; read-out: MIC
Number in µg/mL, nothing else.

>>> df
                                   compound  resultvalue
0  Cc1[nH]c(C(=O)Nc2ccc(-c3nn[nH]n3)cc2N2CCCC(CN)C2)c(Cl)c1Cl.Cl (centres unmarked)           16
1  Cc1[nH]c(C(=O)Nc2ccc(-c3n[nH]c(=O)o3)cc2N2CCNCC2)c(Cl)c1Cl.Cl            2
2  Cc1[nH]c(C(=O)Nc2ccc(-n3nn[nH]c3=O)cc2N2Cc3ccccc3C2)c(Cl)c1Cl           16

Q: Reported MIC for Cc1[nH]c(C(=O)Nc2ccc(-c3noc(=O)[nH]3)cc2N2CCN(c3ccccc3)CC2)c(Cl)c1Cl : what is it?
Ans: 4
